Molecular target: CaM/AC8-C2b interaction (Homo sapiens, UniProt P0DP23)
Assay: Fluorescence polarization
Format: binding
Conditions: AC8-C2b pIC50, 0% Triton, FP, 316 nM GST-CaM, 100 nM Cy5-AC8-C2b, no Triton X-100
reported endpoint: IC50 (µM)
Express it in µM; write the number only.

What value of IC50 has been recorded for this entry: Clc1ccc(C(c2ccc(Cl)cc2)n2cc[n+](CC(OCc3ccc(Cl)cc3Cl)c3ccc(Cl)cc3Cl)c2)cc1 (stereo not drawn) [CDZ, calmidazolium chloride]
3.16

Param item: CCCCC(CC)CNC(=N)NC(=N)NCCCCCCNC(=N)NC(=N)NCC(CC)CCCC (stereo not drawn)
5.89

// query: CCCCCCCCCCCCCCCC[N+](C)(C)CCN(Cc1ccc(OC)cc1)c1ncccn1 [thonzonium, Thonzonium bromide]
10
